Biological target: Poly [ADP-ribose] polymerase 1 (Homo sapiens, UniProt P09874)
Sequence (P09874 whole entry): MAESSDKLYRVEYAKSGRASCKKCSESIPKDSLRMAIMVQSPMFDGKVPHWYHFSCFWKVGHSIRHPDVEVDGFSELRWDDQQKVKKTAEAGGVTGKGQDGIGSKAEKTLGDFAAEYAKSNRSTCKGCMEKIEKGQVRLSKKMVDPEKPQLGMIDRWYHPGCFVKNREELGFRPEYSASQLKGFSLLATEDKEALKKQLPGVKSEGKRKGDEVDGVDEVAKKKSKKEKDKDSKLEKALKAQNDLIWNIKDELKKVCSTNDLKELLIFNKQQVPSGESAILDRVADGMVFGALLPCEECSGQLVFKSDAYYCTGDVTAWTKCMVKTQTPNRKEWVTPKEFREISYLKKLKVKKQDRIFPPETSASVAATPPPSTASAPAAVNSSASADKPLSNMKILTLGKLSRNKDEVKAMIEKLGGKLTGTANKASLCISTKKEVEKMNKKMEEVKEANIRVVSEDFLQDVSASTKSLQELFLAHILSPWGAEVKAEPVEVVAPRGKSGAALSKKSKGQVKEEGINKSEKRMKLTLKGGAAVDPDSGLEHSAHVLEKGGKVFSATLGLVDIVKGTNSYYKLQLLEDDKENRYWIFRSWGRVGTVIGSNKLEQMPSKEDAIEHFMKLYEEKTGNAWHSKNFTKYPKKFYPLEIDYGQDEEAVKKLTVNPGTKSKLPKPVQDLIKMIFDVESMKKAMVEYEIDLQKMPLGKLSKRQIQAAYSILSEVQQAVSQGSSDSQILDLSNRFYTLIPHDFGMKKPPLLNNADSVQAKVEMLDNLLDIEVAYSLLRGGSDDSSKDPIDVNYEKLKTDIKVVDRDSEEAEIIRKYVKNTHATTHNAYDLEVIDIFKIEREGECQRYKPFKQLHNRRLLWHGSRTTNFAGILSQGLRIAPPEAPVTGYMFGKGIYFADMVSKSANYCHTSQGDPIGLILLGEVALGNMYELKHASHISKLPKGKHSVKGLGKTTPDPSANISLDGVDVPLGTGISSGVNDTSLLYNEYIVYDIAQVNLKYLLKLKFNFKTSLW
Settings: dose 100.0 nM, time 30.0 min
// reported inhibition for each item listed

- Compound string: "COc1cc(/C=N/NC(=S)Nc2ccc(Oc3ccccc3)cc2)c(Br)c(Br)c1OC"
  inhibition: "23.7%"
- Compound string: "COc1cc(/C=N/NC(N)=S)cc(Br)c1O"
  inhibition: "42.9%"
- Compound string: "COc1cc(/C=N/NC(=S)Nc2ccccc2)c(Br)c(Br)c1OC"
  inhibition: "43.8%"
- Compound string: "COc1cc(/C=N/NC(=S)Nc2cccc(C(F)(F)F)c2)cc(Br)c1OC"
  inhibition: "38.3%"
- Compound string: "COc1cc(/C=N/NC(=S)Nc2cccc(C(F)(F)F)c2)c(Br)c(Br)c1OC"
  inhibition: "23%"

[ask] Quick one: inhibition of `COc1ccc(/C=N/NC(=S)Nc2ccccc2)c(Br)c1O` ?
[reply] 42.9%

[ask] Also, `CCOC(=O)c1ccc(NC(=S)N/N=C/c2cc(Br)c(OC)c(OC)c2)cc1` please.
[reply] 43.7%

====

Test system: Caco-2
Assay: Antiproliferative activity against human Caco-2 cells assessed as cell growth inhibition at 20 uM incubated for 48 hrs by MTT assay relative to control
Type: functional
// reported inhibition at 20 µM for each item listed
The figure you give is taken to be in %; do not add the unit.

- Compound string: "COc1cc(/C=N/NC(=S)Nc2ccc(F)cc2)c(Br)c(Br)c1OC"
  Unit of measure: "%"
  Measured: 24.5
- Compound string: "COc1cc(/C=N/NC(=S)Nc2ccc(Oc3ccccc3)cc2)cc(Br)c1OC"
  Unit of measure: "%"
  Measured: 76.3

[ask] Quick one: inhibition at 20 µM of `NC(=S)N/N=C/c1cc(O)c(O)c(Br)c1` ?
[reply] 47.9

[ask] Also, `Oc1cc(/C=N/NC(=S)Nc2ccccc2)cc(Br)c1O` please.
[reply] 72

[ask] Also, `COc1ccc(/C=N/NC(=S)Nc2ccccc2)cc1O` please.
[reply] 71.4

[ask] Also, `CCOC(=O)c1ccc(NC(=S)N/N=C/c2cc(Br)c(OC)c(OC)c2)cc1` please.
[reply] 55.5

====

Target: Poly [ADP-ribose] polymerase 1 (Homo sapiens)
Experiment: Inhibition of human recombinant GST-tagged PARP-1 expressed in Escherichia coli assessed as reduction in NAD+-dependent ADP ribosylation incubated for 30 mins in presence and NAD by resazurin dye based fluorescence analysis
Assay endpoint: pIC50
The value called pIC50 is obtained by taking minus log10 of the concentration in mol/L.

Recorded results for 3 compounds are shown here.
- Compound string: "CCOC(=O)c1ccc(NC(=S)N/N=C/c2cc(OC)c(OC)c(Br)c2Br)cc1"
  Assay endpoint: "pIC50"
  Measured: 7.23
- Compound string: "COc1cc(/C=N/NC(N)=S)c(Br)c(Br)c1O"
  Assay endpoint: "pIC50"
  Measured: 6.60
- Compound string: "COc1cc(/C=N/NC(=S)NCCCN2CCOCC2)c(Br)c(Br)c1OC"
  Assay endpoint: "pIC50"
  Measured: 6.73

Kindly consider the entry below.
[ask] Quick one: pIC50 of `COc1cc(/C=N/NC(N)=S)c(Br)c(Br)c1OC` ?
[reply] 7.53

====

Tested on: Bel-7402
Assay: Antiproliferative activity against human Bel-7402 cells assessed as cell growth inhibition incubated for 48 hrs by MTT assay
Type: functional, cell-based
Settings: Bel-7402, 48 h
pIC50: −log10 of the molar value.
# binarize pIC50: threshold 5 inclusive, high side 1, low side -1

- Compound string: "NC(=S)N/N=C/c1cc(O)c(O)c(Br)c1Br"
  Label class: -1
- Compound string: "COc1cc(/C=N/NC(N)=S)c(Br)c(Br)c1OC"
  Label class: 1
- Compound string: "COc1cc(/C=N/NC(=S)Nc2ccccc2)c(Br)c(Br)c1OC"
  Label class: -1

Now look at this entry.
[ask] Is it the case that `CCOC(=O)c1ccc(NC(=S)N/N=C/c2cc(OC)c(OC)c(Br)c2Br)cc1` has pIC50 reaching or exceeding 5?
[reply] 1

====

Test system: Caco-2
Assay: Antiproliferative activity against human Caco-2 cells assessed as cell growth inhibition at 20 uM incubated for 48 hrs by MTT assay relative to control
Format: functional
# binarize inhibition at 20 µM: threshold 40% inclusive, high side fulfilled, low side not fulfilled

Worked cases, answers included:
- Compound string: "COc1cc(/C=N/NC(=S)Nc2ccc(Cl)cc2)c(Br)c(Br)c1OC"
  Label class: "fulfilled"
- Compound string: "COc1cc(/C=N/NC(=S)Nc2ccc(F)cc2)cc(Br)c1OC"
  Label class: "fulfilled"
- Compound string: "COc1cc(/C=N/NC(=S)Nc2ccccc2)ccc1O"
  Label class: "fulfilled"
- Compound string: "COc1cc(/C=N/NC(=S)Nc2ccccc2)cc(Br)c1O"
  Label class: "fulfilled"

[ask] Is it the case that `COc1cc(/C=N/NC(=S)Nc2ccccc2)cc(Br)c1OC` has inhibition at 20 µM reaching or exceeding 40%?
[reply] fulfilled

[ask] Also, `COc1cc(Br)c(/C=N/NC(N)=S)cc1OC` please.
[reply] not fulfilled

[ask] Also, `COc1cc(/C=N/NC(=S)Nc2ccc(Cl)cc2)cc(Br)c1OC` please.
[reply] fulfilled

====

Test system: Caco-2
Assay: Antiproliferative activity against human Caco-2 cells assessed as cell growth inhibition at 20 uM incubated for 48 hrs by MTT assay relative to control
Type: functional
# binarize inhibition at 20 µM: threshold 40% inclusive, high side y, low side n

Worked cases, answers included:
- Compound string: "COc1cc(/C=N/NC(=S)Nc2ccccc2)c(Br)c(Br)c1O"
  Label class: "n"
- Compound string: "COc1cc(Br)c(/C=N/NC(=S)Nc2ccccc2)cc1OC"
  Label class: "n"
- Compound string: "Oc1cc(/C=N/NC(=S)Nc2ccccc2)c(Br)c(Br)c1O"
  Label class: "y"
- Compound string: "COc1cc(/C=N/NC(=S)NCCCN2CCOCC2)c(Br)c(Br)c1OC"
  Label class: "y"
- Compound string: "Oc1ccc(/C=N/NC(=S)Nc2ccccc2)cc1O"
  Label class: "y"
- Compound string: "CNC(=S)N/N=C/c1cc(Br)c(OC)c(OC)c1"
  Label class: "y"
- Compound string: "COc1cc(/C=N/NC(N)=S)cc(Br)c1O"
  Label class: "n"
- Compound string: "COc1cc(/C=N/NC(=S)Nc2ccc(Oc3ccccc3)cc2)c(Br)c(Br)c1OC"
  Label class: "n"

[ask] Is it the case that `COc1ccc(/C=N/NC(N)=S)c(Br)c1O` has inhibition at 20 µM reaching or exceeding 40%?
[reply] n

[ask] Also, `COc1cc(/C=N/NC(N)=S)cc(Br)c1OC` please.
[reply] n

[ask] Also, `COc1cc(/C=N/NC(N)=S)c(Br)c(Br)c1OC` please.
[reply] y

[ask] Also, `NC(=S)N/N=C/c1cc(O)c(O)c(Br)c1Br` please.
[reply] y

====

// reported inhibition at 48 h, 20 µM for each item listed
Assay: Cytotoxicity against human HL7702 cells assessed as cell growth inhibition at 20 uM incubated for 48 hrs by MTT assay relative to control
Type: cell-based
Conditions: HL7702 (L02) cells
The figure you give is taken to be in %; do not add the unit.

Recorded results for 2 molecules are shown here.
- Compound string: "COc1cc(/C=N/NC(N)=S)cc(Br)c1OC"
  Unit of measure: "%"
  inhibition at 48 h, 20 µM: 2.11
- Compound string: "CNC(=S)N/N=C/c1cc(OC)c(OC)c(Br)c1Br"
  Unit of measure: "%"
  inhibition at 48 h, 20 µM: 63.4

[ask] Quick one: inhibition at 48 h, 20 µM of `COc1cc(/C=N/NC(N)=S)c(Br)c(Br)c1OC` ?
[reply] 89.9

[ask] Also, `COc1cc(/C=N/NC(=S)NCCCN2CCOCC2)c(Br)c(Br)c1OC` please.
[reply] 51

[ask] Also, `COc1cc(/C=N/NC(=S)Nc2ccc(F)cc2)cc(Br)c1OC` please.
[reply] 68.6

[ask] Also, `COc1cc(/C=N/NC(=S)Nc2ccccc2)cc(Br)c1O` please.
[reply] 40.7

[ask] Also, `COc1ccc(/C=N/NC(=S)Nc2ccccc2)c(Br)c1O` please.
[reply] 46.9

[ask] Also, `NC(=S)N/N=C/c1cc(O)c(O)c(Br)c1Br` please.
[reply] 82.9

[ask] Also, `COc1cc(/C=N/NC(=S)Nc2ccc(Cl)cc2)cc(Br)c1OC` please.
[reply] 42.9

[ask] Also, `COc1cc(/C=N/NC(=S)Nc2cccc(C(F)(F)F)c2)cc(Br)c1OC` please.
[reply] 58.6

[ask] Also, `COc1cc(Br)c(/C=N/NC(N)=S)cc1OC` please.
[reply] 42.5
